Target: T1, 4H3493-AA
T1 chain: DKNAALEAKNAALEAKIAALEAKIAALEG
Test: two-hybrid library CCmax;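 note: natural log of median RNA to DNA barcode read ratio; higher means stronger binding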
Settings: mean of both orientations
observedProperty: interaction score

* DKNAALEAKIAALEAEIAALKAENAALKG [4H3340-AA] | -1.48
* DKIAALKAKNAALEAKNAALKAEIAALEG [4H3001-AA] | -1.38
* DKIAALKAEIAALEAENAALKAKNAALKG [4H2592-AA] | -1.21
* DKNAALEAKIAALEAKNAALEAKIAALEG [4H3381-AA] | -1.77
* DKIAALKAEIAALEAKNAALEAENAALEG [4H2611-AA] | -1.87

[A] DKIAALEAKNAALKAEIAALEAKNAALKG [4H2504-AA]
[B] DEIAALEAKIAALKAENAALKAENAALEG [4H347-AA]
Query: Min interaction score? A | B Kindly state the label of the option you pick.
Response: B
(B: -2.08, A: -1.14)
